These data points were gathered from PubChem BioAssay AID1346428.

tested on: Probable G-protein coupled receptor 32 (Homo sapiens) (UniProt O75388)
Sequence (O75388 whole entry, looked up): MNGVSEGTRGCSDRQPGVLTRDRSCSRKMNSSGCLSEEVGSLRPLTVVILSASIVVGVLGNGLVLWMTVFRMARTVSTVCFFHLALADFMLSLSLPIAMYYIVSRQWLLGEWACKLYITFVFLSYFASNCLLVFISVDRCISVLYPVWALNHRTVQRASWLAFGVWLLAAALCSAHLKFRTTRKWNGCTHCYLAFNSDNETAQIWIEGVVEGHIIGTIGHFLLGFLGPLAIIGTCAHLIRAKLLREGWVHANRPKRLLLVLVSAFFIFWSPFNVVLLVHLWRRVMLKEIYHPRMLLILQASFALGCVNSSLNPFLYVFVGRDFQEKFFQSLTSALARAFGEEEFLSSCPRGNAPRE
protocol description: qHTS for Agonists of Human Resolvin D1 Receptor DRV1
experimental conditions: CHO-K1 GPR32 beta-arrestin PathHunter luminescence, 90 min; at 76.9 µM; hits give high values; zero percent set by DMSO-only wells
The whole screen tested about 48,000 compounds, of which about 1,200 (2.5%) were called active. Another 2% or so got no clear call; they are omitted. This is one part of a sample in which actives are shown more often than they occur.
activation: recorded values
property name: activation (%)

In [3]: df
Out[3]:
                                   molecule                                 tested_on  reported
0                 COc1cccc(NC(=O)c2csnn2)c1  Probable G-protein coupled receptor 32 (Homo sapiens) (UniProt O75388)      10.9
1    C=Cc1ccc(Cn2c(C(=O)OC)cc3sc(C)cc32)cc1  Probable G-protein coupled receptor 32 (Homo sapiens) (UniProt O75388)     -21.6
2  O=C(c1cnn(-c2ccc(F)cc2)c1-n1cccc1)N1CCN(c2ccc(F)cc2)CC1  Probable G-protein coupled receptor 32 (Homo sapiens) (UniProt O75388)        19
3  Cc1cc(N2CCN(c3cccc(C(F)(F)F)c3)CC2)n2nc(-c3ccccc3)nc2n1  Probable G-protein coupled receptor 32 (Homo sapiens) (UniProt O75388)     -14.2
4  CC(C)(C)C1CCc2c(sc(NC(=O)c3ccccc3F)c2C(=O)N2CCCCC2)C1 (centres undefined)  Probable G-protein coupled receptor 32 (Homo sapiens) (UniProt O75388)     -35.6
5  Cc1ccccc1C(=O)N(Cc1ccc(N(C)C)cc1)CC1CCCO1 (centres undefined)  Probable G-protein coupled receptor 32 (Homo sapiens) (UniProt O75388)     -21.9
6  Cc1cc(C)cc(OC(C)C(=O)Nc2nc3c(s2)CCCC3)c1 (centres undefined)  Probable G-protein coupled receptor 32 (Homo sapiens) (UniProt O75388)     -14.5
7  COc1ccc(NC(=O)CCCN2C(=O)CCn3nc(-c4cn(C)c5ccccc45)cc32)cc1OC  Probable G-protein coupled receptor 32 (Homo sapiens) (UniProt O75388)      17.2
8   CCc1cccc(NC(=O)c2cc(-c3ccccc3)n[nH]2)c1  Probable G-protein coupled receptor 32 (Homo sapiens) (UniProt O75388)    -0.275

###

tested on: Probable G-protein coupled receptor 32 (Homo sapiens) (UniProt O75388)
protocol description: qHTS for Agonists of Human Resolvin D1 Receptor DRV1
experimental conditions: CHO-K1 GPR32 beta-arrestin PathHunter luminescence, 90 min; at 76.9 µM; hits give high values; zero percent set by DMSO-only wells
Hit rate of the full screen: of about 48,000 compounds, about 1,200 (2.5%) were called active. Another 2% or so got no clear call; they are omitted. Many of the other results were omitted from the sample, so actives are more common in it than they were.
Some compounds, each annotated with its measured activation.
property name: activation (%)

>>> df
                            molecule_smiles                                 tested_on  property_name  reported
0  Cc1cccc(NC(=O)Cn2nc(-c3ccc(Cl)cc3)c3ccccc3c2=O)c1  Probable G-protein coupled receptor 32 (Homo sapiens) (UniProt O75388)     activation     -2.07
1       CCOc1ccc(CCNC(=O)c2csc3c2CCCCC3)cc1  Probable G-protein coupled receptor 32 (Homo sapiens) (UniProt O75388)     activation      3.74
2  COc1ccccc1-c1cc2nc(C)c(CCC(=O)O)c(C)n2n1  Probable G-protein coupled receptor 32 (Homo sapiens) (UniProt O75388)     activation    -0.841
3  Cc1ccc(Cl)cc1NC(=O)/C(C#N)=C\c1cn(Cc2ccc(F)cc2)c2ccccc12  Probable G-protein coupled receptor 32 (Homo sapiens) (UniProt O75388)     activation      7.85

###

tested on: Probable G-protein coupled receptor 32 (Homo sapiens)
protocol description: qHTS for Agonists of Human Resolvin D1 Receptor DRV1
experimental conditions: CHO-K1 GPR32 beta-arrestin PathHunter luminescence, 90 min; at 76.9 µM; zero percent set by DMSO-only wells
Among all 48,000 compounds or so, about 1,200 (2.5%) were called active. About 2% were inconclusive and are not listed.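 Rule for the calls: active = activation of at least 60% and not above a set upper limit (about 1 call in 100 departs from these limits); inconclusive = activation of 40% to 60%, or above that upper limit; inactive = activation under 40%.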 What follows is part of a selection rich in actives, with near analogues and random picks from the rest.
Classes used: class 1 for active, class 0 for inactive

>>> print(df.to_string())
                                    molecule  category
 0  COc1ccc(-c2onc(C)c2C)cc1S(=O)(=O)NCCc1ccccc1   class 0
 1  Cc1c(NC(=O)Nc2ccc(F)c(Cl)c2)c(=O)n(-c2ccccc2)n1C   class 0
 2  Cc1csc2nc(COc3ccc(NC(=O)COc4ccccc4)cc3)cc(=O)n12   class 1
 3  Cc1ccc(NC(=O)Cn2c(=O)n(-c3ccccc3)c(=O)c3c4c(sc32)CCCC4)cc1   class 0
 4  CCC(=O)N1CCc2cc(Br)cc(S(=O)(=O)NCc3ccc(Cl)cc3)c21   class 0
 5  CCn1cc(C(=O)OCC(=O)Nc2cc(C)cc(C)c2)c(=O)c2ccc(C)nc21   class 0
 6  Cc1oc2ccc(O)c(CN3CCOCC3)c2c1C(=O)Nc1cccc(Cl)c1C   class 0
 7  Cc1oc2ccc(O)c(CN3CCCCC3)c2c1C(=O)Nc1cccc(C(F)(F)F)c1   class 1
 8  COc1ccc(CCC(=O)NCc2ccc3c(c2)CCN3C(=O)c2ccc(F)cc2)cc1   class 0
 9  Cc1ccc(Cl)cc1N(C)C(=O)C1CCCN(c2ncnc3onc(-c4ccc(F)cc4)c23)C1 (centres undefined)   class 0
10  CCOC(=O)C(Cc1ccccc1)NC(=O)CCc1c(C)nc2c(c(C)nn2-c2ccc(C)c(C)c2)c1C (centres undefined)   class 0
11  Cc1ccc(C(=O)Nc2ccc(OCc3cc(=O)n4c(C)csc4n3)cc2)cc1   class 0
12  Oc1c(C(c2ccc(F)cc2)N2CCN(Cc3ccccc3)CC2)sc2nc(-c3ccco3)nn12 (centres undefined)   class 1
13                O=C(OCc1ccccc1)c1ccc(O)cc1   class 1

###

Measured activation by item
tested on: Probable G-protein coupled receptor 32 (Homo sapiens) (UniProt O75388)
protocol description: qHTS for Agonists of Human Resolvin D1 Receptor DRV1
experimental conditions: CHO-K1 GPR32 beta-arrestin PathHunter luminescence, 90 min; at 76.9 µM; hits give high values; zero percent set by DMSO-only wells
Hit rate of the full screen: of about 48,000 compounds, about 1,200 (2.5%) were called active. Not shown: some 2% with an inconclusive outcome. Shown is part of a subset that was picked to be rich in actives.
property name: activation (%)

In [3]: df
Out[3]:
                                    compound  property_name  quantity_unit  reported
 0  O=C(CSc1oc(-c2ccccc2)nc1S(=O)(=O)c1ccc(Br)cc1)NC1CCCCC1     activation              %     -14.8
 1  COC(=O)c1cc(S(=O)(=O)N2CCN(c3cc(Cl)ccc3C)CC2)c[nH]1     activation              %      13.7
 2  COc1ccc(-c2noc(CCC(=O)N(C)c3ccccc3C)n2)cc1     activation              %       107
 3  Cc1ccc(Cl)cc1N1CCN(S(=O)(=O)c2cc3[nH]c(=O)c(=O)[nH]c3cc2C)CC1     activation              %        97
 4  Cc1ccc(NC(=O)c2nc(S(=O)(=O)Cc3cccc(C)c3)ncc2Cl)cc1     activation              %     -21.8
 5  Cc1cc2nc(NC(=O)c3ccc(S(=O)(=O)N4CCOCC4)cc3)sc2cc1C     activation              %     -4.68
 6  COc1cccc(CNC(=O)CCc2nc(-c3ccc(C)cc3)no2)c1     activation              %      92.5
 7  CC1CCCN(Cc2c(O)ccc3c(=O)c(Oc4ccc(C(C)(C)C)cc4)c(C(F)(F)F)oc23)C1 (stereo not given)     activation              %      64.7
 8  COc1cccc(CNC(=O)CN2C(=O)CCc3cc(S(=O)(=O)N4CCOCC4)ccc32)c1     activation              %         0
 9  CN(Cc1ccco1)S(=O)(=O)c1nnc(NC(=O)c2ccccc2)s1     activation              %      18.1
10  CCOc1cccc(C(=O)Nc2nnc(S(=O)(=O)N(C)c3ccc(C)cc3)s2)c1     activation              %      63.1
11  O=C(Nc1nnc(S(=O)(=O)N2CCCc3ccccc32)s1)c1cccc(F)c1     activation              %      45.3
12  Cc1ccc(N(CC(=O)Nc2cc(C)cc(C)c2)S(=O)(=O)c2cccc3nonc23)cc1     activation              %     -3.71
13  O=C(Nc1nnc(S(=O)(=O)N2CCOCC2)s1)c1cccc(Br)c1     activation              %      93.4
14  O=C(Nc1nnc(S(=O)(=O)N2CCCCCC2)s1)c1cccc(Br)c1     activation              %       115
15  COc1cc(OC)cc(C(=O)Nc2ccc3nc(Nc4cccc(C(F)(F)F)c4)cc(C)c3c2)c1     activation              %     -9.34
16  COc1ccc(-c2c(C)c3ccc(O)c(CN4CCCC4)c3oc2=O)cc1OC     activation              %     -5.21
17  Cc1[nH]c2ccccc2c1C(c1ccccc1)c1cccs1 (stereo not given)     activation              %      73.6
18  Cc1ccccc1NC(=O)Cn1cc(C(=O)c2cccs2)c2ccccc21     activation              %     -6.21
19  O=C(c1ccc2c(c1)N(Cc1ccccc1)C(=O)c1ccccc1S2(=O)=O)N1CCC(Cc2ccccc2)CC1     activation              %     -8.72
20  CCOC(=O)C1CCCN(CC(=O)Nc2cc(C)c3c(=O)oc4ccccc4c3n2)C1 (stereo not given)     activation              %     -11.1
21  COc1ccc2c(c1)c(N1CCCC1=O)c(C(=O)Nc1ccc(OC)c(Cl)c1)n2C     activation              %      3.27
22  COc1ccc(CC(=O)Nc2ccc(-c3nc4ccccc4s3)c(C)c2)cc1     activation              %      27.8
23  CCc1nc2c(cnn2-c2ccc(C)cc2)c(=O)n1-c1ccc(C)cc1     activation              %     -4.43
24  CCCS(=O)(=O)c1ncc(Cl)c(C(=O)Nc2scc(-c3ccccc3)c2C(=O)OCC)n1     activation              %      97.2
